tested on: RAW-Dual (murine macrophage reporter line); assay: NF-kB reporter (SEAP) activity fold change vs agonist alone; higher = enhanced NF-kB activity; conditions: modulator concentration 10 µM; agonist: LPS 0.1 ug/mL
reported_property: NF-kB reporter

{"columns": ["molecule", "numeric_readout"],
 "data": [
  ["O=C1c2ccccc2C(=O)c2c1ccc(O)c2O", 1.06],
  ["COc1ccc(CCNCC(O)COc2cccc(C)c2)cc1OC.Cl (stereo unspecified)", 1.15],
  ["CCCCN(CCCC)S(=O)(=O)c1ccc(N2CCCC2=O)c([N+](=O)[O-])c1", 1.07],
  ["ON=C1ON=C(c2ccccc2)C1=NO", 0.775],
  ["O=c1cccnn1CC1CN(c2ncc(Br)cn2)C1", 1.08],
  ["COc1ccc(CNc2nc(N3CCC[C@H]3CO)ncc2C(=O)NCc2ncccn2)cc1Cl", 0.629]
]}
